Source listed as ChEMBL document CHEMBL4507292.

system-under-test: voltage-gated sodium channel, site 2 (Rattus norvegicus, UniProt F1LQQ7+O08562+O88420+O88457+P04774+P04775+P08104+P15389+P15390+Q62968)
test-description: Inhibition of Sodium Channel, Site 2 at 10 µM in the Eurofins-Panlabs radioligand binding assay (Eurofins_assay_279510)
Assay type: protein assay
Parameters: ligand concentration 5 nM, non-specific ligand with concentration 100 µM Veratridine, incubation time 60 min, incubation temperature 37 °C
experimental-parameters: male, Wistar, rat whole brain (except cerebellum) membranes, probe [3H] Batrachotoxinin, 5 nM, compound concentration 10 uM
parameter: inhibition at 60 min, 10 µM

What measured inhibition at 60 min, 10 µM goes with O=C(O)c1cc(-c2ccc(C3CCNCC3)cc2)c2ccc(-c3ccc(C(F)(F)F)cc3)cc2c1 [PPTN] ? -10% (not active)

---

system-under-test: L-type calcium channel, benzothiazepine site (Cav1.2 alpha-1C) (Homo sapiens)
Sequence (Q13936 whole entry): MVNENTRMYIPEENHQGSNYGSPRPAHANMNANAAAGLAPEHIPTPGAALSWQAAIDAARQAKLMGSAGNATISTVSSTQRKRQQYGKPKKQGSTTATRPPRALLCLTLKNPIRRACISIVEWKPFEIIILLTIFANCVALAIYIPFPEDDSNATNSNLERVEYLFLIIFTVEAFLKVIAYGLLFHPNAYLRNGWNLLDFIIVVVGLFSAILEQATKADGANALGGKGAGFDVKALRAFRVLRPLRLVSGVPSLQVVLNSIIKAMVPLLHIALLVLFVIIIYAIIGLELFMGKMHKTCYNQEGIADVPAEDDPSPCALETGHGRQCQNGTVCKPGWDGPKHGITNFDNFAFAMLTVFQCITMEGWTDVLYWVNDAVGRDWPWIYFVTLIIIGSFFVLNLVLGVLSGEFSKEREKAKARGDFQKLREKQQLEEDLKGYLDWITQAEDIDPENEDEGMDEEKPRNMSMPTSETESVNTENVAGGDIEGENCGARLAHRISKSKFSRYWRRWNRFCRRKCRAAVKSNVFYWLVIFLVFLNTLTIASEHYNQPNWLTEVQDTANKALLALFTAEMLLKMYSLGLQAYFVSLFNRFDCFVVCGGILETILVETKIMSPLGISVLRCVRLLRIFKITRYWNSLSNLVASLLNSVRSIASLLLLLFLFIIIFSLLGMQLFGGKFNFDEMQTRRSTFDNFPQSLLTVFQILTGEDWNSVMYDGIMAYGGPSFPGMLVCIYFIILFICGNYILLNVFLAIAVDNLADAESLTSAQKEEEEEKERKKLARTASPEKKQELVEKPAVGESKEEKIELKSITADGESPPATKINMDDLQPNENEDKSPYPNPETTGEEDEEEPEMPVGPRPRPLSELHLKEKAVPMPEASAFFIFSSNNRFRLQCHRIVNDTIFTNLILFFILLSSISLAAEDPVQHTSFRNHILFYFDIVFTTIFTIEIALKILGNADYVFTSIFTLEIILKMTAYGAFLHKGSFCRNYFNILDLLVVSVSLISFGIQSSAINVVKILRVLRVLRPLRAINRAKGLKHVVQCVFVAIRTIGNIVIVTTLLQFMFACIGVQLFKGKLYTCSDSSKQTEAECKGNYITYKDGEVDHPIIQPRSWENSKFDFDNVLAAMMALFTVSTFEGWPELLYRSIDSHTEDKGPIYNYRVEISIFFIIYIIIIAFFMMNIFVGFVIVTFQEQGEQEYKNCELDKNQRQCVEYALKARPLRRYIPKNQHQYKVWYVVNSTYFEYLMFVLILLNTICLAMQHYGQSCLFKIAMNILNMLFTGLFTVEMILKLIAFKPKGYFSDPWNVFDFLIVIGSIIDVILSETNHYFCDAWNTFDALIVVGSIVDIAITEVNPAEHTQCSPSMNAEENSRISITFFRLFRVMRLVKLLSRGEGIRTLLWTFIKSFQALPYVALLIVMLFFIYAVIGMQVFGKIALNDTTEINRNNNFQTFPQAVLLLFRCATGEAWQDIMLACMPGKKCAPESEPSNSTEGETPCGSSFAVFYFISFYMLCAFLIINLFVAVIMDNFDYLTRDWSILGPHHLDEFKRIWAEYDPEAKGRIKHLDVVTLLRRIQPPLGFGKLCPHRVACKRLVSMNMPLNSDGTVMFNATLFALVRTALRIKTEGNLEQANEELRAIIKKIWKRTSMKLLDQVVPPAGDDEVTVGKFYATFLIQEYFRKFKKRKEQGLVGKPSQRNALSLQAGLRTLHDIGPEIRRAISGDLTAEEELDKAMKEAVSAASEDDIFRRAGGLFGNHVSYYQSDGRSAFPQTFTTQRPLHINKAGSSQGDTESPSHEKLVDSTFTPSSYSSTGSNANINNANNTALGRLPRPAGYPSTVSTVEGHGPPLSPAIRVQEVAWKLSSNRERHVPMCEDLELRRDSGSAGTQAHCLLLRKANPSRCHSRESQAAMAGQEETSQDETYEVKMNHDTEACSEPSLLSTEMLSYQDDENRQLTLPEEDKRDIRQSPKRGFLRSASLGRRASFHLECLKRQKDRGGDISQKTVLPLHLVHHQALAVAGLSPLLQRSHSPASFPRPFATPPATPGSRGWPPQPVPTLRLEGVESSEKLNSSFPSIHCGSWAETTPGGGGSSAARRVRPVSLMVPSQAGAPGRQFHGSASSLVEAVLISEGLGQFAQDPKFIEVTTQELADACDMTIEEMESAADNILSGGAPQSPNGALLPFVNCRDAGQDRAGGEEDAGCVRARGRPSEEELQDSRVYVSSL
test-description: Inhibition of Calcium Channel L-Type, Benzothiazepine at 10 µM in the Eurofins-Panlabs radioligand binding assay (Eurofins_assay_214510)
Parameters: ligand concentration 2 nM, non-specific ligand with concentration 10 µM Diltiazem, incubation time 3h, incubation temperature 4 °C
experimental-parameters: male, Wistar, rat, rat whole brain preparation, probe [3H] Diltiazem, 2 nM; compound concentration 10 uM; target entry is the homologue from another species
parameter: inhibition at 3 h, 10 µM

// returns reported inhibition at 3 h, 10 µM for input O=C(O)c1cc(-c2ccc(C3CCNCC3)cc2)c2ccc(-c3ccc(C(F)(F)F)cc3)cc2c1 [PPTN] 11% (not active)

---

system-under-test: cGMP-specific 3',5'-cyclic phosphodiesterase (Homo sapiens)
parameter: IC50
Record the result as number plus unit.

Given the entry O=C(O)c1cc(-c2ccc(C3CCNCC3)cc2)c2ccc(-c3ccc(C(F)(F)F)cc3)cc2c1 , report its measured IC50. 38.2 µM

---

system-under-test: Neurotensin receptor type 1 (Homo sapiens)
parameter: pIC50
Give bare numbers, as −log10 of the molar value.

Fill in the recorded pIC50 for this molecule, with Neurotensin receptor type 1 (Homo sapiens) as test system: O=C(O)c1cc(-c2ccc(C3CCNCC3)cc2)c2ccc(-c3ccc(C(F)(F)F)cc3)cc2c1 5.06

---

Sequence of the target: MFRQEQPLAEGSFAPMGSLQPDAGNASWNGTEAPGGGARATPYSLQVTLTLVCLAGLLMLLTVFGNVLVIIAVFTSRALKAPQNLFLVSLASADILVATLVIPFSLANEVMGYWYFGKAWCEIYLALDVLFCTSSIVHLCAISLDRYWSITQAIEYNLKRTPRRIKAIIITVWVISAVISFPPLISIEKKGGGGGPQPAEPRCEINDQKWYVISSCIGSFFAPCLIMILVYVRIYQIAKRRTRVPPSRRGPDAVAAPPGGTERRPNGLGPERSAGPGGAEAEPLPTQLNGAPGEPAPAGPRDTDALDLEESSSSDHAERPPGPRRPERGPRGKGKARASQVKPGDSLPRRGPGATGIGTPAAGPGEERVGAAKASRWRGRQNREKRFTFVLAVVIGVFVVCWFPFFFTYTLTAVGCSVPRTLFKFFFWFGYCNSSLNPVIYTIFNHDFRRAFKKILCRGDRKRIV
parameter: IC50 (µM)
Give bare numbers, in µM.

What IC50 value was documented for this molecule, O=C(O)c1cc(-c2ccc(C3CCNCC3)cc2)c2ccc(-c3ccc(C(F)(F)F)cc3)cc2c1 ? 4.07

---

system-under-test: Sodium-dependent dopamine transporter (Homo sapiens, UniProt Q01959)
parameter: pIC50
One number for each entry, as −log10 of the molar value.

# query: pIC50 of entry O=C(O)c1cc(-c2ccc(C3CCNCC3)cc2)c2ccc(-c3ccc(C(F)(F)F)cc3)cc2c1 [PPTN] 5.64

---

system-under-test: Kappa-type opioid receptor (Homo sapiens)
Sequence (P41145 whole entry): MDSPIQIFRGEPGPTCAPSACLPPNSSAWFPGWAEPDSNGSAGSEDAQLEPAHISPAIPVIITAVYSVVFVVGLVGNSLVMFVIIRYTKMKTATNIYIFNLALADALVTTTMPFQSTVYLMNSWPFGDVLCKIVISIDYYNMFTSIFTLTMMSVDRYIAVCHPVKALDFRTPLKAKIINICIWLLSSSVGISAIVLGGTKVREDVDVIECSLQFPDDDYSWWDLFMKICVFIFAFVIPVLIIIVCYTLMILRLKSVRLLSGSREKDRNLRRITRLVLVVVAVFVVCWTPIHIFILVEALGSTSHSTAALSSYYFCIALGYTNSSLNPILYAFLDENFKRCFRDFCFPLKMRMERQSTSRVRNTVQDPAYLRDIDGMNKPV
parameter: pIC50
Answers are plain numbers, as −log10 of the molar value.

# get_value(readout='pIC50', item= O=C(O)c1cc(-c2ccc(C3CCNCC3)cc2)c2ccc(-c3ccc(C(F)(F)F)cc3)cc2c1 [PPTN] ) 5.10

---

system-under-test: Neurotensin receptor type 1 (Homo sapiens, UniProt P30989)
Sequence (P30989 whole entry): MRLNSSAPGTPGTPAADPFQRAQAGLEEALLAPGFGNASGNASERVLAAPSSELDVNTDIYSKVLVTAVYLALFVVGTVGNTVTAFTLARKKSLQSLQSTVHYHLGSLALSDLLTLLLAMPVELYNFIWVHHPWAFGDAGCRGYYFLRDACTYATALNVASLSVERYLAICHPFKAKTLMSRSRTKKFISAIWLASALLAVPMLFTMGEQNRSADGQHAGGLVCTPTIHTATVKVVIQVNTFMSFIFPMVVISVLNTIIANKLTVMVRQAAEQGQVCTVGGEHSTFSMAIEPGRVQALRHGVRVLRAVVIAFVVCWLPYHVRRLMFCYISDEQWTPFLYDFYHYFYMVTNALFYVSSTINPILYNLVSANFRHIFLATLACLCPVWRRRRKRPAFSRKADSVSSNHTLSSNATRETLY
parameter: Ki (µM)
Give bare numbers, in µM.

May I ask what Ki has been recorded for O=C(O)c1cc(-c2ccc(C3CCNCC3)cc2)c2ccc(-c3ccc(C(F)(F)F)cc3)cc2c1 ? 6.97

---

test-description: Cholecystokinin CCK2 (CCKB) Eurofins-Panlabs radioligand binding assay
Design: species or system Homo sapiens; ligand concentration 0.072 nM, non-specific ligand with concentration 1 µM Sincalide, incubation time 3 h, incubation temperature 25 °C
parameter: IC50 (µM)
Give bare numbers, in µM.

Item under review: O=C(O)c1cc(-c2ccc(C3CCNCC3)cc2)c2ccc(-c3ccc(C(F)(F)F)cc3)cc2c1 . Reported IC50? 10

---

Kindly state pKi for each of the entries shown.
system-under-test: Sigma non-opioid intracellular receptor 1 (Homo sapiens, UniProt Q99720)
Sequence (Q99720 whole entry): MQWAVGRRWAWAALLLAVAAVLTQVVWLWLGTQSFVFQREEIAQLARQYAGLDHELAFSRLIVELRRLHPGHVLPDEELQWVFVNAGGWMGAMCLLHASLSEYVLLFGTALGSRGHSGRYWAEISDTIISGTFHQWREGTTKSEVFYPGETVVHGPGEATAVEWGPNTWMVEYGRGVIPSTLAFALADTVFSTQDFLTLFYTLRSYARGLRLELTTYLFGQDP
test-description: GPCRScan assay: inhibition of Sigma 1
Numbers only, as −log10 of the molar value.

compound: Cc1c(C(=O)O)cc(-c2ccc(C3CCNCC3)cc2)c2ccc(-c3ccc(C(F)(F)F)cc3)cc12 [PPTN-NC]
reported: 5.93

# ---- query compound ----
Dear colleague, I am looking for the recorded pKi of the following compound: O=C(O)c1cc(-c2ccc(C3CCNCC3)cc2)c2ccc(-c3ccc(C(F)(F)F)cc3)cc2c1 [PPTN] 5.93

---

system-under-test: Insulin receptor (Homo sapiens, UniProt P06213)
Sequence (P06213 28-758 limits assumed): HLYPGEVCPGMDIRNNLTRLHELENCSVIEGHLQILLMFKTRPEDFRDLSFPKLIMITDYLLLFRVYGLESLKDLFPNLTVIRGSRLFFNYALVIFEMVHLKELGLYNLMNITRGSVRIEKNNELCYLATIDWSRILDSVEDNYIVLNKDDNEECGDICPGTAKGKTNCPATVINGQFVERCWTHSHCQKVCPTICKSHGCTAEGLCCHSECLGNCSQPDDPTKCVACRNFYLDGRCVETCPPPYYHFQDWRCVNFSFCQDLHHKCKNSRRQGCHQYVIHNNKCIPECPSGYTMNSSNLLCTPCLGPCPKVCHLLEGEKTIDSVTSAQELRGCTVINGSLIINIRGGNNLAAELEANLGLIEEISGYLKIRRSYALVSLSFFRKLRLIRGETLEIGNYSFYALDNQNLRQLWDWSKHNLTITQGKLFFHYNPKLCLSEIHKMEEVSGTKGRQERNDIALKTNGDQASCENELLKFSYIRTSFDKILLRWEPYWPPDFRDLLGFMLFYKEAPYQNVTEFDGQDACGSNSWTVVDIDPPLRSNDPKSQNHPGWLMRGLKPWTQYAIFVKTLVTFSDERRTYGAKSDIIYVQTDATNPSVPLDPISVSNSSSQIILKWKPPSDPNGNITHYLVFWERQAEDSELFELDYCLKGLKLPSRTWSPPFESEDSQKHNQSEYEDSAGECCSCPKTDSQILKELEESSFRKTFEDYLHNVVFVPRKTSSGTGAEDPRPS
Sequence (P06213 763-1382 limits assumed): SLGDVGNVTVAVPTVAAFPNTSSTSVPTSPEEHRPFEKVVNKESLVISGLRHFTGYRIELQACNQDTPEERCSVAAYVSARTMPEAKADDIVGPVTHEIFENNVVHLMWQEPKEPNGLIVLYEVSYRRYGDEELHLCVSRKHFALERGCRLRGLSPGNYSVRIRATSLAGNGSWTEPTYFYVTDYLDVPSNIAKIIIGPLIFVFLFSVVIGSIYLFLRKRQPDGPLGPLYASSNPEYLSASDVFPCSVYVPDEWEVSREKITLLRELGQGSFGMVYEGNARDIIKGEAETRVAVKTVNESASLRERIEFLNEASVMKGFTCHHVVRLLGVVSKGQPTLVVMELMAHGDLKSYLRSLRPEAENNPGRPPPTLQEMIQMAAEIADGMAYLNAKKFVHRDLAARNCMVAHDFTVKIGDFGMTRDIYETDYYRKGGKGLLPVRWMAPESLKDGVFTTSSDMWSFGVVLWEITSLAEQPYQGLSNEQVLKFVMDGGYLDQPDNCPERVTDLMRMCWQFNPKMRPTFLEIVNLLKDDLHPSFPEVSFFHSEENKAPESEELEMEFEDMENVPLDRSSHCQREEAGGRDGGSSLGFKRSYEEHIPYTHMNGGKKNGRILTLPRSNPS
parameter: IC50
A complete answer gives the number followed by the unit.

Field request: IC50 | item: O=C(O)c1cc(-c2ccc(C3CCNCC3)cc2)c2ccc(-c3ccc(C(F)(F)F)cc3)cc2c1 4.31 µM

---

test-description: Phosphodiesterase PDE6 Eurofins-Panlabs enzyme assay
Set-up: species or system Bos taurus; substrate with concentration [3H] cGMP + cGMP, incubation time 20 min, incubation temperature 25 °C
parameter: IC50
Report field: quantity (unit follows the number).

Recorded IC50 of O=C(O)c1cc(-c2ccc(C3CCNCC3)cc2)c2ccc(-c3ccc(C(F)(F)F)cc3)cc2c1 , please. 32.9 µM

---

Target sequence: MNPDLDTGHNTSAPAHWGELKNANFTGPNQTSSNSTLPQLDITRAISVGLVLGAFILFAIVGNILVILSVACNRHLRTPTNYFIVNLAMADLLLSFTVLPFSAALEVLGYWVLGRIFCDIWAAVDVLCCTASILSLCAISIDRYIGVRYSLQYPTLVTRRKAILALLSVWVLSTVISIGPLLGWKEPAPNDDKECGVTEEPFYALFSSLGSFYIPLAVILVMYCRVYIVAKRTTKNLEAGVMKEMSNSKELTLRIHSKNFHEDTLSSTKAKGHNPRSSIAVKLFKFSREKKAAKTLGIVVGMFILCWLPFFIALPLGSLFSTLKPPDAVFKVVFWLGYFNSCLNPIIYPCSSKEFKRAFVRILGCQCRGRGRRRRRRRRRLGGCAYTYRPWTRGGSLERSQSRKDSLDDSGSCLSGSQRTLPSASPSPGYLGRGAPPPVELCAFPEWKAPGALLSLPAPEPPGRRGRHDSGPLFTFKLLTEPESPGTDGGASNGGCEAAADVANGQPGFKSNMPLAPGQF
parameter: pKi
One number for each entry, as −log10 of the molar value.

molecule: O=C(O)c1cc(-c2ccc(C3CCNCC3)cc2)c2ccc(-c3ccc(C(F)(F)F)cc3)cc2c1 [PPTN]
pKi: 5.49

We next turn to a different molecule, shown below.
If you can, please state the reported pKi value of Cc1c(C(=O)O)cc(-c2ccc(C3CCNCC3)cc2)c2ccc(-c3ccc(C(F)(F)F)cc3)cc12 [PPTN-NC] . 5.44

---

system-under-test: Cysteinyl leukotriene receptor 1 (Homo sapiens)
Sequence (Q9Y271 whole entry): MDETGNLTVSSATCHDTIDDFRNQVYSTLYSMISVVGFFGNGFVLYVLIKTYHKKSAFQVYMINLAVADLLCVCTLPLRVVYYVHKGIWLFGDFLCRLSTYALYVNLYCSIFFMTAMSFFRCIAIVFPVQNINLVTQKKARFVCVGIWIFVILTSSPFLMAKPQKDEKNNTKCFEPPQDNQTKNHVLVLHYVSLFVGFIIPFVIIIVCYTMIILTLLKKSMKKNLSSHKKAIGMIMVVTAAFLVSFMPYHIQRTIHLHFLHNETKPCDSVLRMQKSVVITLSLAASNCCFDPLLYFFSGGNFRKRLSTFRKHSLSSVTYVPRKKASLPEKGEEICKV
parameter: pIC50
Answers are plain numbers, as −log10 of the molar value.

Param readout = pIC50; param system = Cysteinyl leukotriene receptor 1 (Homo sapiens); param query = O=C(O)c1cc(-c2ccc(C3CCNCC3)cc2)c2ccc(-c3ccc(C(F)(F)F)cc3)cc2c1 ; response: value 6.25

---

system-under-test: 5-hydroxytryptamine receptor 1A (Homo sapiens, UniProt P08908)
Sequence (P08908 whole entry): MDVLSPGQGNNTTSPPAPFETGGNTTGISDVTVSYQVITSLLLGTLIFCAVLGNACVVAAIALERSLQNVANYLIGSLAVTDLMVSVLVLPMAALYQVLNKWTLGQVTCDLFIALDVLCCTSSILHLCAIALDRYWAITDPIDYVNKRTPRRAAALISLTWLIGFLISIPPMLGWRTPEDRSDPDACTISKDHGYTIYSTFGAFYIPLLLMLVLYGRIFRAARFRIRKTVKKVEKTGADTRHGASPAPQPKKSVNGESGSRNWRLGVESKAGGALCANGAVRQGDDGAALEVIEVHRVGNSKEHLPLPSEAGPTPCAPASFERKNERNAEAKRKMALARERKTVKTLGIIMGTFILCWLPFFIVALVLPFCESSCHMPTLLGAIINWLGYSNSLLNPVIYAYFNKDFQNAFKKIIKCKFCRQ
parameter: IC50 (µM)
Numbers only, in µM.

For O=C(O)c1cc(-c2ccc(C3CCNCC3)cc2)c2ccc(-c3ccc(C(F)(F)F)cc3)cc2c1 , what is its reported IC50? 7.01
